Test Description: qHTS assay for small molecule agonists of the p53 signaling pathway (AID 651631); further: nearly all actives have a fitted effect of over 15% in size
Experimental Setup: HCT-116 p53RE-bla reporter, beta-lactamase FRET ratio, 16 h; series mostly up to 73.3 µM
Records with an inconclusive call do not appear. Active and inactive are the calls of the source. The call rests on the fitted dose curve.
Just give me one of these, please: True for active, False for inactive

*Q* I would be grateful if you could indicate the recorded call for C[Se]CCC(N)C(=O)O (stereo unspecified) .
*A* False

*Q* I would be grateful if you could indicate the recorded call for CCN(CC)c1ccc(N=Nc2ccc(S(=O)(=O)N(C)C)cc2)c(S(=O)(=O)NCC[n+]2ccccc2)c1 .
*A* False

*Q* I would be grateful if you could indicate the recorded call for COc1ccc(/C=C/C(=O)OCCC(C)C)cc1 .
*A* False

*Q* I would be grateful if you could indicate the recorded call for COc1cc([C@@H]2c3cc4c(cc3C(O[C@@H]3O[C@@H]5COC(c6cccs6)O[C@H]5[C@H](O)[C@H]3O)C3COC(=O)[C@@H]32)OCO4)cc(OC)c1O (stereo partly specified) .
*A* True

*Q* I would be grateful if you could indicate the recorded call for C[C@@H](O)[C@H]1C(=O)N2C(C(=O)[O-])=C(SC3Cn4cnc[n+]4C3)[C@H](C)[C@H]12 (stereo partly specified) .
*A* False

*Q* I would be grateful if you could indicate the recorded call for CCCCCCCCCCCCCCCCCC(=O)[O][Al] .
*A* False

====

Test Description: qHTS assay to test for compound auto fluorescence at 590 nm (red) in HepG2 cells (AID 720674)
Experimental Setup: HepG2 autofluorescence, red 540/590 nm, 1 h; series mostly up to 46 µM
Activity calls are given as the source filed them. The call rests on the fitted dose curve; in most records, active means well fitted curve in the direction sought with a large enough effect in the repeat runs; inconclusive means weak or mixed curves; inactive means flat fitted curve, though single readings scatter.
Parameter Measured: outcome

Answered cases to consult:
Compound	Result
NCCCC[C@H](NC(=O)[C@@H]1CCCN1C(=O)[C@@H]1CSSC[C@H](N)C(=O)N[C@@H](Cc2ccccc2)C(=O)N[C@@H](Cc2ccccc2)C(=O)N[C@@H](CCC(N)=O)C(=O)N[C@@H](CC(N)=O)C(=O)N1)C(=O)NCC(N)=O	inactive
C=C1C(=C/C=C2\CCC[C@]3(C)[C@@H]([C@H](C)/C=C/[C@H](C)C(C)C)CC[C@@H]23)C[C@@H](O)C[C@@H]1O	inactive
CNC(=O)[C@H](Cc1c[nH]c2ccccc12)NC(=O)[C@@H](CC(=O)NO)CC(C)C	inactive
C[C@@](Cc1ccc(O)c(O)c1)(NN)C(=O)O	inactive
CN(CC(=O)N1CCOCC1)Cc1c(Cl)cccc1NC(=O)c1ccccc1	inactive
CC[C@]1(O)CC2CN(CCc3c([nH]c4ccccc34)[C@@](C(=O)OC)(c3cc4c(cc3OC)N(C)[C@H]3[C@@](O)(C(N)=O)[C@H](O)[C@]5(CC)C=CCN6CC[C@]43[C@@H]65)C2)C1 (some centres not stated)	inactive

*Q* Give outcome for the following compound: COc1ccc(CCNC[C@H](O)c2ccc(O)cc2)cc1OC
*A* inactive

====

Test Description: qHTS assay to identify small molecule antagonists of the androgen receptor (AR) signaling pathway using the MDA cell line - cell viability counter screen (AID 743041; further: nearly all actives have a fitted effect of over 45% in size)
Experimental Setup: MDA-kb2 viability, CellTiter-Fluor, 16 h, cells co-treated with R1881 androgen agonist; series mostly up to 70.3 µM
Results filed as inconclusive are left out. Active and inactive are the calls of the source. Calls follow the shape of the dose curve; as a rule, active = well fitted cell-killing curve with a large enough effect in the repeat runs; inconclusive = weak or mixed curves, or effect the other way; inactive = flat fitted curve, though single readings scatter. Positions of bridges follow the written chain, without caps; N, C: chain ends. Non-standard residues stand in square brackets, D forms with d. Residues, ends and D or L forms follow the SMILES beside them. pGlu = O=C1CC[C@@H](C(=O)O)N1
Just give me one of these, please: 1.0 (active), 0.0 (inactive)

*Q* I would be grateful if you could indicate the recorded call for CCCCOC(=O)C(=O)Nc1cccc(-c2nn[nH]n2)c1 .
*A* 0.0

*Q* I would be grateful if you could indicate the recorded call for CN(C)CC/C=C1/c2ccccc2CSc2ccccc21 .
*A* 0.0

*Q* I would be grateful if you could indicate the recorded call for COc1ccc2cc([C@H](C)CO)ccc2c1 .
*A* 0.0

*Q* I would be grateful if you could indicate the recorded call for CCC(C)(C)OC(=O)N[C@@H](Cc1c[nH]c2ccccc12)C(=O)N[C@@H](CCSC)C(=O)N[C@@H](CC(=O)O)C(=O)N[C@@H](Cc1ccccc1)C(N)=O .
*A* 0.0

*Q* I would be grateful if you could indicate the recorded call for COCC(=O)Nc1cc(Sc2ccccc2)ccc1N=C(NC(=O)OC)NC(=O)OC .
*A* 0.0

*Q* I would be grateful if you could indicate the recorded call for NCCCC[C@H](NC(=O)[C@@H]1CCCN1C(=O)[C@@H]1CSSC[C@H](NC(=O)CNC(=O)CNC(=O)CN)C(=O)N[C@@H](Cc2ccc(O)cc2)C(=O)N[C@@H](Cc2ccccc2)C(=O)N[C@@H](CCC(N)=O)C(=O)N[C@@H](CC(N)=O)C(=O)N1)C(=O)NCC(N)=O (H-GGGCYFQNCPKG-NH2; disulfide 4-9) .
*A* 0.0

*Q* I would be grateful if you could indicate the recorded call for C[C@]12CC[C@@H]3c4ccc(O)cc4CC[C@H]3[C@@H]1CC[C@@H]2OP(=O)(O)O .
*A* 0.0

*Q* I would be grateful if you could indicate the recorded call for c1ccc2cc(C3=NCCN3)ccc2c1 .
*A* 0.0

*Q* I would be grateful if you could indicate the recorded call for CC(=O)N=c1sc(S(N)(=O)=O)nn1C .
*A* 0.0

*Q* I would be grateful if you could indicate the recorded call for CCCCCCCCCCCCOCCCN .
*A* 0.0

*Q* I would be grateful if you could indicate the recorded call for O=C(OCc1ccccc1)c1cccnc1 .
*A* 0.0

*Q* I would be grateful if you could indicate the recorded call for C=C1CC[C@H](O)CC1=C/C=C1\CCC[C@]2(C)[C@@H]([C@H](C)CC[C@@H](O)C(C)(C)O)CC[C@@H]12 .
*A* 0.0

*Q* I would be grateful if you could indicate the recorded call for CC(C)CCC[C@@H](C)[C@H]1CC(=O)C2=C3CC[C@H]4C[C@@H](O)CC[C@]4(C)[C@H]3CC[C@@]21C .
*A* 0.0

*Q* I would be grateful if you could indicate the recorded call for CC[C@H](C)[C@H](NC(=O)[C@H](Cc1ccccc1)NC(=O)[C@H](C)NC(=O)[C@H](CC(=O)O)NC(=O)[C@H](CCCCN)NC(=O)[C@H](CO)NC(=O)[C@@H]1CCCN1C(=O)[C@@H]1CCC(=O)N1)C(=O)NCC(=O)N[C@@H](CC(C)C)C(=O)N[C@@H](CCSC)C(N)=O ([pGlu]PSKDAFIGLM-NH2) .
*A* 0.0

*Q* I would be grateful if you could indicate the recorded call for CC1(O)CCC(C(C)(C)O)CC1 (stereo not given) .
*A* 0.0

*Q* I would be grateful if you could indicate the recorded call for CO[C@@H]1[C@@H](O[C@@H]2O[C@H](C)[C@@H](O[C@H]3C[C@@](C)(O)[C@@H](O)[C@H](C)O3)[C@H](N(C)C)[C@H]2O)[C@@H](CC=O)C[C@@H](C)[C@@H](O[C@@H]2CC[C@H](N(C)C)[C@@H](C)O2)/C=C/C=C/C[C@@H](C)OC(=O)C[C@H]1O .
*A* 0.0

*Q* I would be grateful if you could indicate the recorded call for CCOC(=O)Cc1cccc(-c2cc(CCCCCCc3ccc(O[C@H]4O[C@H](COC(C)=O)[C@@H](OC(C)=O)[C@H](OC(C)=O)[C@@H]4OC(C)=O)c(-c4cccc(CC(=O)OCC)c4)c3)ccc2O[C@H]2O[C@H](COC(C)=O)[C@@H](OC(C)=O)[C@H](OC(C)=O)[C@@H]2OC(C)=O)c1 .
*A* 0.0

*Q* I would be grateful if you could indicate the recorded call for O=C(O)c1c(Cl)c(Cl)c(Cl)c(Cl)c1-c1c2cc(I)c(=O)c(I)c-2oc2c(I)c(O)c(I)cc12 .
*A* 1.0

*Q* I would be grateful if you could indicate the recorded call for CNCC(O)c1ccc(OC(=O)C(C)(C)C)c(OC(=O)C(C)(C)C)c1 (stereo not given) .
*A* 0.0

*Q* I would be grateful if you could indicate the recorded call for CC(C)CN(C[C@@H](OP(=O)(O)O)[C@H](Cc1ccccc1)NC(=O)O[C@H]1CCOC1)S(=O)(=O)c1ccc(N)cc1 .
*A* 0.0

*Q* I would be grateful if you could indicate the recorded call for CO/N=C(\C(=O)N[C@@H]1C(=O)N2C(C(=O)O)=C(CSc3nnnn3C)CS[C@H]12)c1csc(N)n1 .
*A* 0.0

*Q* I would be grateful if you could indicate the recorded call for Cc1c(Cl)cccc1Nc1ncccc1C(=O)O .
*A* 0.0

*Q* I would be grateful if you could indicate the recorded call for CC(/C=C/C=C(\C)C(=O)O[C@@H]1O[C@H](CO[C@@H]2O[C@H](CO)[C@@H](O)[C@H](O)[C@H]2O)[C@@H](O)[C@H](O)[C@H]1O)=C\C=C\C=C(C)\C=C\C=C(/C)C(=O)O[C@@H]1O[C@H](CO[C@@H]2O[C@H](CO)[C@@H](O)[C@H](O)[C@H]2O)[C@@H](O)[C@H](O)[C@H]1O .
*A* 0.0

*Q* I would be grateful if you could indicate the recorded call for CC(CN(C)C)CN1c2ccccc2Sc2ccc(C(F)(F)F)cc21 (stereo not given) .
*A* 0.0

*Q* I would be grateful if you could indicate the recorded call for [O]=[Bi][O][Bi]=[O] .
*A* 0.0

*Q* I would be grateful if you could indicate the recorded call for O=C1C(=O)c2ncccc2-c2cccnc21 .
*A* 0.0

*Q* I would be grateful if you could indicate the recorded call for CC1(C)S[C@@H]2[C@H](NC(=O)Cc3ccccc3)C(=O)N2[C@H]1C(=O)O .
*A* 0.0

*Q* I would be grateful if you could indicate the recorded call for CNC[C@@H]1CC[C@@H](N)[C@@H](O[C@H]2[C@H](O)[C@@H](O[C@H]3OC[C@](C)(O)[C@H](NC)[C@H]3O)[C@H](N)C[C@@H]2N)O1 .
*A* 0.0

*Q* I would be grateful if you could indicate the recorded call for CC#CCC(C)[C@H](O)/C=C/[C@@H]1[C@H]2C/C(=C/CCCC(=O)O)C[C@H]2C[C@H]1O (stereo not given in full) .
*A* 0.0

*Q* I would be grateful if you could indicate the recorded call for CCCCCCCC(=O)CC[C@@H]1[C@@H](C/C=C\CCCC(=O)OC(C)C)[C@@H](O)C[C@H]1O .
*A* 0.0
